# System: IGROV1 ovarian
# method notes: NCI-60 one-dose screen, 48 h (100 = growth as untreated, 0 = no growth, -100 = all killed)
# condition parameters: 10 µM unless noted
# Method: Growth inhibition of the IGROV1 human tumor cell line is measured as a screen for anti-cancer activity. Cells are grown in 96 well plates and exposed to the test compound for 48 hours. Compounds are tested at a single concentration, which is 10^-5 M for most compounds. The reported endpoint is percent growth (GI% or GIPRCNT), where numbers from 0 - 100% represent growth inhibition, and numbers from -100% - 0 represent cell death. For example, a value of 40 represents 60% growth inhibition. […]
About 83,000 compounds went through this panel and 20% of them were active in at least one assay; those are over-represented in the sample as a whole.
Record form. Attribute: growth. Fill in for each entry.
// units = %; emit number, no label

// lookup growth for COc1ccc(-c2cn(-c3ccc(Cl)cc3)c(=S)[nH]2)cc1OC
49.4

Fill in the blank: the reported growth of COc1ccc(/C=C/C(=O)C(CC2CCC2)C(=O)/C=C/c2ccc(OC)c(OC)c2)cc1OC is ____.
-17.1

Name the reported growth value associated with the molecule Cc1cc(NC(=O)CNc2nc(Oc3ccc(F)cc3)nc(-c3ccc(F)cc3)n2)ccc1Cl
106

If you can, please state the reported growth value of Nc1cccc(C(=O)Nc2ccc3c(O)c(N=Nc4ccc(N=Nc5ccc(S(=O)(=O)O)cc5)cc4)c(S(=O)(=O)O)cc3c2)c1 .
97.8

Item under review: COc1ccc(-c2cc(C(=O)N3N=C(c4ccc(N)cc4)CC3c3ccc(OC)cc3)c3cc(OC)ccc3n2)cc1 (centres undefined) . Reported growth?
50.8

Any idea what growth was measured for COCCOCCOCc1n(Cc2ccc3ccccc3c2)c2ccccc2[n+]1Cc1ccc2ccccc2c1 ?
-7.12

Quick check: growth of CCCS(=O)(=O)Nc1ccc(F)c(C(=O)c2c[nH]c3ncc(-c4ccc(OCCCC5CCCCN5)nc4)cc23)c1F (centres undefined) ?
31.7

Query: growth; subject: Nc1c(C(=O)Nc2ccccn2)sc2nc3c(cc12)C(=O)CCC3
51.3

Consider the molecule CC(=O)Oc1ccc(O)cc1 and give its measured growth.
107

Fill in the blank: the reported growth of COc1cc(NC(=O)Nc2cnc(Nc3ccc(N4CCOCC4)cc3)nc2Oc2ccc(C(F)(F)F)cc2)cc(OC)c1 is ____.
104

# query: growth of entry CCCn1c(N)c(C(N)=O)sc1=S
100

Returns the measured growth for the input molecule. Input: O=C(Nc1nccs1)c1noc2ccccc12
84.1

Recorded growth for Cc1ccc(C(=O)/C(=C/c2ccc([N+](=O)[O-])cc2)S(=O)Cc2ccccc2)cc1 (centres undefined) , please?
-7.98

Which growth is listed for COc1cc(C2=NN(C(C)=O)C(c3cccc(Nc4ccnc5cc(C(F)(F)F)ccc45)c3)C2)cc(OC)c1OC (centres undefined) ?
62.4

Param item = C#C[C@@]1(O)[C@@H](CO)O[C@@H](n2cc(I)c3c(N)ncnc32)[C@@H]1O ; retrieve measured growth.
-34.9

Fill in: growth of COc1ccc2nc(-c3ccc(OC)c(OC)c3)cc(-c3nnc(SCC(=O)Nc4ccc(/C(C)=N\O)cc4)n3-c3ccccc3)c2c1 is ___
28.1

Value lookup for growth; key = C#C[C@@]1(O)[C@@H](CO)O[C@@H](n2cnc3c(-c4ccccc4)ncnc32)[C@@H]1O
106

Look up growth: CC1(c2ccccc2Cl)NC(=O)NC1=O (centres undefined)
106

Returns the measured growth for the input molecule. Input: CCOC(=O)C1=C(C)n2nc(CC#N)c(C#N)c2NC1c1ccc(CC)cc1 (centres undefined)
69.9

###

# Tested on: SNB-75 CNS
# method notes: NCI-60 one-dose screen, 48 h (100 = growth as untreated, 0 = no growth, -100 = all killed)
# condition parameters: 10 µM unless noted
About 83,000 compounds went through this panel and 20% of them were active in at least one assay; those are over-represented in the sample as a whole.
Label Criterion met for high-side growth (at or above 80%) and Criterion not met for low-side growth (below it).

Given the entry Cc1ccc(C2=N[C@H]3CCC[C@@H]3N(c3ccccc3)C(C(Cl)Cl)=N2)cc1 , answer whether its growth meets or surpasses 80%.
Criterion not met

Check the entry COCCOC(=O)COc1ccc(OC)cc1 : does growth equal or exceed 80%?
Criterion met

Threshold query (growth >= 80%) on COc1cc2c(cc1OCCCOc1cc3c(cc1OC)C(=O)N1CC(F)(F)C[C@H]1C=N3)N=C[C@@H]1CC(F)(F)CN1C2=O
Criterion not met

State whether the measured growth reaches 80%, counting equality as reaching it, for COc1cc(C(=O)Nc2cc(OC)c3ccn(C)c3c2)cc2c1C[C@]1(C)CC[C@@H](O)C(C)(C)[C@H]1O2
Criterion not met

Entry Cc1c(C(=O)Nc2nc3ccccc3[nH]2)cnn1-c1ccccn1 : is its growth no less than 80%?
Criterion met

Is reported growth greater than or equal to 80% here: O=C(Nc1cc(Nc2ncccc2-c2ncnc3nc[nH]c23)ccc1F)c1cc(C(F)(F)F)cc(C(F)(F)F)c1
Criterion not met

Please tell me: is the molecule COc1cc(C(C)c2ccc3c(ccn3C)c2)cc(OC)c1OC (configuration not stated) at or over 80% in terms of growth?
Criterion not met

Check the entry COc1cc2nc3c(=O)n(-c4ccc(C#N)cc4)cnn3c(=O)c2cc1OC : does growth equal or exceed 80%?
Criterion not met

Has O=c1[nH]c2ccccc2cc1-c1nc2ccncc2[nH]1 a recorded growth greater than or equal to 80%?
Criterion not met

growth >= 80% for CNS(=O)(=O)c1cccc(-c2ccc3c4c(n(C)c(=O)c3c2)-c2ccccc2C4=O)c1 ?
Criterion not met

# check: growth of O=C(N/N=C/C[C@@H]1[C@@H](/C=C/[C@@H](O)COc2cccc(Cl)c2)[C@H](O)C[C@@H]1O)c1ccncc1 is greater than or equal to 80%
Criterion met

Given the entry CN(C)[C@@H]1C(=O)C(C(N)=O)=C(O)[C@@]2(O)C(=O)C3=C(O)c4c(O)cc(CN5CCc6ccccc6C5)c(Cl)c4C[C@H]3C[C@@H]12 , answer whether its growth meets or surpasses 80%.
Criterion not met

Is growth for NC(N)=NC(N)=Nc1cc2ccccc2c2ccccc12 at or above 80%?
Criterion not met

Can Cc1cc(C)n(-c2nc(-c3cccs3)c(C#N)c(=O)[nH]2)n1 be said to have growth at or above 80%?
Criterion met

API: above_or_equal(metric=growth, cutoff=80%) for item O=C(NCc1ccccc1)c1ccc2c(c1)NC(=O)[C@@H]1CCCN21
Criterion met

Form field: growth at least 80%? Entry: CO[C@@]12C=C[C@@]34CCC(=O)N3c3ccccc3[C@@H](O1)C4C2
Criterion met

Hi, just wondering whether CC(C)(C)c1nn(-c2ccccc2)c2c1COCN2Cc1ccc(Cl)cc1 shows growth of 80% or higher.
Criterion met

Please indicate if the recorded growth for Cc1cc(C)cc(Nc2nccc(-c3c(-c4ccc(F)cc4)ncn3C3CCNCC3)n2)c1 meets or exceeds 80%.
Criterion not met

State whether the measured growth reaches 80%, counting equality as reaching it, for CCc1n(Cc2ccc3ccccc3c2)c2ccccc2[n+]1Cc1ccc2ccccc2c1
Criterion not met

Is the recorded value of growth equal to or greater than 80% for this molecule? Cc1cccc2nc3c(n12)C(=O)C(=O)c1ccccc1-3
Criterion met

Tell me whether growth is at least 80% here: COc1ccc(-n2cc(-c3ccc(Cl)c(Cl)c3)[nH]c2=O)cc1OC
Criterion met

Please check the record COc1cccc(C(=O)OCCn2nc3c4c(cccc42)C(=O)c2ccccc2-3)c1O and state if its growth is at or above 80%.
Criterion not met

Reported growth at or above 80%? CSc1nc(-c2cccs2)c2c(N)[nH]nc2n1
Criterion met

Hi team, for CCOC(=O)c1c(C)nc2c(c1N)/C(=C/c1ccc[nH]1)C(=O)N2Cc1ccc(C(F)(F)F)cc1 , is the recorded growth at or above 80%?
Criterion not met

hey, is growth for this one >= 80%? COc1cc(NC(=O)Nc2cnc(Nc3ccc(N4CCOCC4)cc3)nc2Oc2ccc(F)cc2)cc(OC)c1
Criterion met

Identify whether the reported growth of the following molecule is 80% or greater: CC(=O)O[C@@H]1C[C@]2(C)[C@H]3[C@H](O)C[C@@H]4C5=CC(C)(C)CC[C@]5(C)CC[C@@]4(C)[C@]3(C)CC[C@H]2C(C)(C)[C@H]1O
Criterion met

# check: growth of O=c1c2ccccc2oc2ccc(OCCCCCCN3CCCCCC3)cc12 is greater than or equal to 80%
Criterion met

Does CCN(CC)CC#CCOC(=O)[C@]1(C)CCC[C@]2(C)[C@H]3C[C@H]4C(C(C)C)=C[C@]3(CC[C@H]21)[C@@H]1C(=O)CCC(=O)[C@@H]14 have a reported growth of at least 80%?
Criterion not met

# bool: growth of COC(=O)/C=C1\SC(=Nc2ccc(C(F)(F)F)cc2)N(CCc2c[nH]c3ccccc23)C1=O >= 80%
Criterion not met

# bool: growth of C=C(C)[C@@H]1CC[C@]2(C(N)=O)CC[C@]3(C)[C@H](CC[C@@H]4[C@@]5(C)CCCNC(C)(C)[C@@H]5CC[C@]43C)[C@@H]12 >= 80%
Criterion not met

Given the entry COC(=O)/C=C1\SC(=Nc2cccc(Cl)c2)N(CCc2c[nH]c3ccccc23)C1=O , answer whether its growth meets or surpasses 80%.
Criterion met

Determine whether this molecule has growth no lower than 80%: CC1=C/C(=N\N=C2/C=C(C)CC(C)(C)C2)CC(C)(C)C1
Criterion met

Does the reported growth for COc1ccc(NC(=O)c2ccc(Nc3ncnc4[nH]c(C)c(C)c34)cc2)cc1 fall at or above the 80% mark?
Criterion met

Does COc1ccc2c(c1)Oc1nc(N)c(C#N)c(N)c1C2Sc1ccc(SC)cc1 (configuration not stated) have a reported growth of at least 80%?
Criterion not met

Item CN(C)CSc1nc2ccccc2s1 with growth of 80% or above?
Criterion not met
